- Test system: HT-29
- Assay Remarks: NCI tumour cell line growth inhibition, 48 h
Calls of active or inactive are those of the source. Cut-off read from the data, not from the text of the source: active = GI50 up to about 1.1 µM and inactive = higher.
Log the outcome using a class from yes for active, no for inactive

INSERT INTO assay_data (compound, assayed_target, group_label) VALUES
  ('COc1ccc(C(=O)c2nc3ccccc3nc2N2CCN(c3ccccc3)CC2)cc1OC', 'HT-29', 'no'),
  ('COC(=O)C(=O)C(C(=O)C(=O)Nc1cccc([N+](=O)[O-])c1)c1nc2ccc(Cl)cc2nc1O (stereo not given)', 'HT-29', 'no'),
  ('COc1cc2c3c4c1OCc1c5c(cc(c1-4)CC3[N+](C)(C)CC2)OCO5 (stereo not given)', 'HT-29', 'no');

Look up the recorded call for Clc1cc(OC23CC4CC(CC(C4)C2)C3)nc(Cl)n1 in this test. no

Write down the call the test reported for this compound. Item: CCCNC(=S)N/N=C(\C)c1ccc(S(=O)(=O)N(C)c2ccccc2)cc1 no

What did this assay record as the result for CC(C)=CCC/C(C)=C/CC/C(C)=C/CCC1(C)CCC([C@H](C)C(=O)O)OO1.CC1=C(CC/C(C)=C/CCC2(C)CCC([C@H](C)C(=O)O)OO2)C(C)(C)CCC1 (stereo not given in full) ? no

Identify the outcome logged in this assay for the compound shown: COC(=O)CCc1ccc2c(c1)CC1(Cc3ccccc3C1)C2 no

Can you look up the reported call for OC1(C23CC4CC(CC(C4)C2)C3)CSCC1(O)C12CC3CC(CC(C3)C1)C2 (stereo not given) for me? no

Status in this test for CSc1nc(NC2OC(COC(C)=O)C(OC(C)=O)C(OC(C)=O)C2OC(C)=O)c2c(n1)OCC2=O (stereo not given) ? no

Per the records of this test, what outcome belongs to N#CC1=C(c2ccccc2)NN(Cc2ccccc2)C(c2ccc(Cl)cc2)CC1=O (stereo not given) ? no

For this compound, state the assay outcome: O=C1C=C(Br)C(=O)C(Br)=C1 no

====

- System: SW-620
- Assay Remarks: NCI tumour cell line growth inhibition, 48 h
Calls of active or inactive are those of the source. Rule as the data show it: active = GI50 up to about 1.1 µM and inactive = higher.
Measured GI50 values are reported for all entries that follow.

INSERT INTO measurements (compound, value_measured) VALUES
  ('CCOc1ccc(NC(=O)CC2Sc3ccccc3NC2=O)cc1 (configuration not stated)', '14.5 µM (inactive)'),
  ('CC(=O)Oc1ccc(CO)cc1OC(C)=O', '> 100 µM (inactive)'),
  ('FC(F)(F)c1cnc(N/N=C(/c2ccccc2)c2ccccn2)c(Cl)c1', '3.02 µM (inactive)'),
  ('Cc1ccc(/C=C/C(=N/NC(=O)N/N=C(/C=C/c2ccc(C)cc2)C(C)(C)CN2CCCCC2)C(C)(C)CN2CCCCC2)cc1', '1.79 µM (inactive)'),
  ('S=C(Nc1c2c(nc3ccccc13)CCCC2)Nc1c2c(nc3ccccc13)CCCC2', '> 100 µM (inactive)'),
  ('COc1cc(/C=C2\N=C(c3ccccc3)N(c3nc4c(Cl)cc(Cl)cc4s3)C2=O)ccc1O', '32.4 µM (inactive)');

Next, consider the following compound.
get_value(item= C=C1C(=O)O[C@H]2[C@@H]3O[C@@](C)(CC/C=C(\C)CCC[C@@H]2C)[C@H](O)C[C@@H]13 , readout=GI50) returns 7.96 µM (inactive)

Sourced from ChEMBL document CHEMBL1201862
